- target under test: T1, Human NRP-1 His (human, UniProt O14786 22-856)
- T1 construct: Recombinant monomeric protein; Biotinylated in the MSD-SET assay; also called hNRP-1; not shown: His tag
- T1 sequence (O14786 22-856 V179A limits assumed): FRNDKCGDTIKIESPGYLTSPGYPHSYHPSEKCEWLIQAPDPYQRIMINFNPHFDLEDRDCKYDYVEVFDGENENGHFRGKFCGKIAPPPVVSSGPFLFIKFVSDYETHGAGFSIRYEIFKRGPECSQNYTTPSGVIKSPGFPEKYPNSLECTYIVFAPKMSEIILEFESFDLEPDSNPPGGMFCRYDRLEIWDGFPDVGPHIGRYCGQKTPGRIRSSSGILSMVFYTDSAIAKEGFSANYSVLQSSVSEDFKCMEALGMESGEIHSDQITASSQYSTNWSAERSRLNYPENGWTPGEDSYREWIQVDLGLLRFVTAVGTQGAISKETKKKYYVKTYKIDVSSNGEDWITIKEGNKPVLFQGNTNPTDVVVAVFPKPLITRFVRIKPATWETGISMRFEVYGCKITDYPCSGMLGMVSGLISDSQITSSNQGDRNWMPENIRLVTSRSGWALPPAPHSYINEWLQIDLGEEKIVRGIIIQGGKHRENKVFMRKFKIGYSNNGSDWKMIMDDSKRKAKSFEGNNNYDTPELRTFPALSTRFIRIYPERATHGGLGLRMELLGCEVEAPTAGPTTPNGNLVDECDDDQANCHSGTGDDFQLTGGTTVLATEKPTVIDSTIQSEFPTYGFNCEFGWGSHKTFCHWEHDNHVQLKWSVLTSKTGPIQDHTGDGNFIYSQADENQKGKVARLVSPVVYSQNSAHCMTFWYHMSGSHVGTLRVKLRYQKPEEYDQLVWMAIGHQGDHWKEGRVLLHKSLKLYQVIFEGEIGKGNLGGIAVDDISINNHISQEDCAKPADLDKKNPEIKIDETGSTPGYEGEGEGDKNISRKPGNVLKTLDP
- test details: MSD-SET solution equilibrium titration, Fab
Measured pKd, listed per entry.
API: returns pKd as number; meaning -log10 of concentration in mol/L.

binder | property | numeric result
MAB11 Fab (Fab, V domains shown) VH: EVQLLESGGGLVQPGGSLRLSCAASGFTFSSVAMVWVRQAPGKGLEWVSAISGSGGATYYADSVEGRFTISRDNSKNTLYLQMSSLRAEDTAVYYCAKDPGYDSSRYYYSNYGMDVWGQGTTVTVSS VL: DIQMTQSPSSLSASVGDRVTITCRASQSISSYLNWYQQKPGKAPKLLIYGASSLQSGVPSRFSGSGSGTDFTLTISSLQPEDFATYYCQQTYSLYTFGGGTKVEIK | pKd | 10.68
MAB2 Fab (Fab, V domains shown) VH: QVQLVQSGAEVKKPGASVKVSCKASGYTFRSYYMLWVRQAPGQGLEWMGIIDPSDGSTSYAQKFQGRVTMTRDASTSTVYMELSSLRSEDTAVYYCARGARRITGYGMDVWGQGTTVIVSS VL: DIQMTQSPSSVSASVGDRVTITCRASQGISSWLAWYQQKPGKAPKLLIYAASNLQSGVPSRFSGSGSGTDFTLTISSLQPEDFATYYCQQASVFPFTFGGGTKVEIK | pKd | 9.64
MAB6 Fab (Fab, V domains shown) VH: QVQLVQSGAKVKKPGASVKVSCKASGYTFTSYYMHWVRQVPGQGLEWMGIINPQGGDTSYAQKFQGRVTMTRDTSTSTVYMELSSLRSEDTAVYYCARDRGMYYASGFNPWGQGTLVTVSS VL: EIVMTQSPGTLSLSPGERATLSCRASQSVSSSYLAWYQQKPGQAPRLLIYGASNRATGIPDRFSGSGSGTDFTLTISRLEPEDFAVYYCQQLSSFPITFGGGTKVEIK | pKd | 9.35
MAB13 Fab (Fab, V domains shown) VH: QVQLQQWGAGLLKPSETLSLTCAVYGGSFRGYYWEWIRQPPGKGLEWIGEISHSGSTNYNPSLKSRVTISVDTSKNQFSLKLSSVTAADTAVYYCARARPYREPYGMDVWGQGTTVTVSS VL: DIQLTQSPSSVSASVGDRVTITCRASQDISSWLAWYQQKPGKAPKLLIYAASSLQSGVPSRFSGSGSGTDFTLTISSLQPEDFATYYCQQELAFPRTFGGGTKVEIK | pKd | 9.27

Could you now look at the following binder, please?
For MAB1 Fab (Fab, V domains shown) VH: QVQLVQSGAGVKKPGASVKVSCKASGYTFRSYYMLWVRQAPGQGLEWMGIIDPSDGSTSYAQKFQGRVTMTRDTPTSTVYMELSSLRSEDTAVYYCARGARRITGYGMDVWGQGTTVTVSS VL: DIQMTQSPSSVSASVGDRVTITCRASQGISSWLAWYQQKPGKAPKLLIYAASNLQSGVPSRFSGSGSGTDFTLTISSLQPEDFATYYCQQASVFPFTFGGGTKVEIK , what is its reported pKd?
9.49

Numbers sourced from patent US20190119389A1.
